# EXPERIMENTAL TARGET: T1, Internalin A (InlA) (Listeria monocytogenes, UniProt P0DJM0 P0DJM0:36-770)
# T1 sequence: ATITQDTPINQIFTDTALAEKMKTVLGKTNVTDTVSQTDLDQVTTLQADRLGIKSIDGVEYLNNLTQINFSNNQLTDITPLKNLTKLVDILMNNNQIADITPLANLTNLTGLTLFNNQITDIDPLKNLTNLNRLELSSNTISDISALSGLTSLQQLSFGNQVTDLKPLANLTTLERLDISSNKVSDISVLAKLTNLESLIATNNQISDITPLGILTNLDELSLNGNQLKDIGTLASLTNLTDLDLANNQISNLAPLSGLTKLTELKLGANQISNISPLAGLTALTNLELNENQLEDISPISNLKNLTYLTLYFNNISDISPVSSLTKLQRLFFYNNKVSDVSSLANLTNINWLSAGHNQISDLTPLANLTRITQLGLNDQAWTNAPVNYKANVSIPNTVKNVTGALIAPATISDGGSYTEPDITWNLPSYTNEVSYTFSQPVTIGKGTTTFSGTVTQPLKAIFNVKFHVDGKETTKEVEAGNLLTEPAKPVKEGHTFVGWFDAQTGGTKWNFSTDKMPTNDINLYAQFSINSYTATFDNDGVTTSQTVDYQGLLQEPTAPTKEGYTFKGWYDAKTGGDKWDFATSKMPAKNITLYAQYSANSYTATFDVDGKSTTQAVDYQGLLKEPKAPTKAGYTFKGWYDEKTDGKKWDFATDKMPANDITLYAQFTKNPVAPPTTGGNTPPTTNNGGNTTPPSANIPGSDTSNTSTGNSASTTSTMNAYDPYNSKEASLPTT
# ASSAY: competition; competitive ELISA, sigmoidal fit
# CONDITION PARAMETERS: tags: His-tag
ASSAY ENDPOINT: pEC50
Give bare numbers, as −log10 of the molar value.

So, ATCCATGGGGCGGAGATGAGGGGGAGGAGGGCGGGTACCCGGTTGAT (ssDNA) [A8] ? Its pEC50 was 6.26

Data provenance is patent US20090264512.
